# test: self-splicing fitness, log relative to wild type (ln ratio); higher = more splicing; Tetrahymena group I intron in knt gene, E. coli kanamycin selection, DiMSum; sequences stand for … in CUCUCU…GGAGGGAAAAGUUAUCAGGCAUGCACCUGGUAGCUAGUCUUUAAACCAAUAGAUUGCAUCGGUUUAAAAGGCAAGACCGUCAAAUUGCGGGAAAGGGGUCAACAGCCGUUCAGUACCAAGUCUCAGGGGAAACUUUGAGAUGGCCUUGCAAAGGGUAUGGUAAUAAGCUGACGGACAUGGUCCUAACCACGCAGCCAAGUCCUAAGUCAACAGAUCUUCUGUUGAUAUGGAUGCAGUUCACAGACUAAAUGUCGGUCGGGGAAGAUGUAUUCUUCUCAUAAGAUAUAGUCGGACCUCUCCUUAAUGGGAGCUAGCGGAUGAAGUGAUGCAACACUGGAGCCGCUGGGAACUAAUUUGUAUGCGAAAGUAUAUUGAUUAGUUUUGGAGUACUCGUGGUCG;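 note: selection with 25 µg/mL kanamycin versus none on LB agar overnight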
# measurement parameters: 37 °C
measure name: self-splicing fitness (ln)

- sequence entry: "CAUGAGCAAUAUUACGAUCU"
  assay value: -2.37
- sequence entry: "AACCAGCAAUAUUACGAACG"
  assay value: -1.25
- sequence entry: "GACUAGCAAUAUUACGACUG"
  assay value: 0.0415
- sequence entry: "GGUUAGCAAUAUUACGGCAU"
  assay value: -0.0754
- sequence entry: "UACCAGCAAUAUUACGGUAA"
  assay value: -0.857
- sequence entry: "GAACAGCAAUAUUACGCGUG"
  assay value: -0.34
- sequence entry: "UACUAGCAAUAUUACGUCGG"
  assay value: -2.18
- sequence entry: "UCGUAGCAAUAUUACGUCUC"
  assay value: -2.29

====

# test: self-splicing fitness, log relative to wild type (ln ratio); higher = more splicing; Tetrahymena group I intron in knt gene, E. coli kanamycin selection, DiMSum; sequences stand for … in CUCUCU…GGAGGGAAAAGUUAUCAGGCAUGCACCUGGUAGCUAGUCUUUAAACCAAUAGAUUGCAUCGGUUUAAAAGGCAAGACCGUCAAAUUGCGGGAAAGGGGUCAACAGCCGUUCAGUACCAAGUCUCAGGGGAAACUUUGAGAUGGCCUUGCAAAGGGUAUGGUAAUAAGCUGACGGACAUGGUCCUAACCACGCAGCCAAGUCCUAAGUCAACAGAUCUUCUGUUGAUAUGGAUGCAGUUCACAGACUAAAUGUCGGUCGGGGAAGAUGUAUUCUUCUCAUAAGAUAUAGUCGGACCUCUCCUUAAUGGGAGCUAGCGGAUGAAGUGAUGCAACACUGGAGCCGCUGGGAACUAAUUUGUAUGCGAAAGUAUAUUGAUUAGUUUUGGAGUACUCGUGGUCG
# measurement parameters: 30 °C
measure name: self-splicing fitness (ln)

- sequence entry: "GUAUAGCAAUAUUACGUCAA"
  assay value: -2.37
- sequence entry: "CGAGAGCAAUAUUACGACCG"
  assay value: -3.71
- sequence entry: "CAGCAGCAAUAUUACGUAUC"
  assay value: -3.6
- sequence entry: "UGGGAGCAAUAUUACGGGCA"
  assay value: -2.36
- sequence entry: "CGCUAGCAAUAUUACGCUCG"
  assay value: -1.72
- sequence entry: "GGCAAGCAAUAUUACGGCGU"
  assay value: -0.154
- sequence entry: "CGCAAGCAAUAUUACGCCUG"
  assay value: -1.96
- sequence entry: "UCAAAGCAAUAUUACGGUGC"
  assay value: -3.92
- sequence entry: "GACAAGCAAUAUUACGGCUC"
  assay value: -0.105
- sequence entry: "GACGAGCAAUAUUACGGGAA"
  assay value: -3.41
- sequence entry: "GGCGAGCAAUAUUACGAGAU"
  assay value: -3.61
- sequence entry: "UCGAAGCAAUAUUACGAUGA"
  assay value: -0.316
- sequence entry: "GACCAGCAAUAUUACGACUU"
  assay value: 0.432
- sequence entry: "CAUGAGCAAUAUUACGUCUU"
  assay value: -4.56
- sequence entry: "UUGUAGCAAUAUUACGGACA"
  assay value: -1.61
- sequence entry: "ACGAAGCAAUAUUACGCAGA"
  assay value: -1.42

====

# test: self-splicing fitness, log relative to wild type (ln ratio); higher = more splicing; Tetrahymena group I intron in knt gene, E. coli kanamycin selection, DiMSum; sequences stand for … in CUCUCU…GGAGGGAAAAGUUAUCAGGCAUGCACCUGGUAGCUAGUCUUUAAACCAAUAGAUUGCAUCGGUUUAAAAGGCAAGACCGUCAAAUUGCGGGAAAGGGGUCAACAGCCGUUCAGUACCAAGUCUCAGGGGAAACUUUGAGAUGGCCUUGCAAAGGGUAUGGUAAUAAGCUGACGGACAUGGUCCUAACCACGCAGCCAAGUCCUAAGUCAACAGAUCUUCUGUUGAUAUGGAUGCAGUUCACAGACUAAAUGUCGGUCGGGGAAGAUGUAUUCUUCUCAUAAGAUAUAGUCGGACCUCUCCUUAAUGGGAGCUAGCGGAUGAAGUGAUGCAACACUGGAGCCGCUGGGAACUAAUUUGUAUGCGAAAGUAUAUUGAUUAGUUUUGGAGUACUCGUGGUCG
# measurement parameters: 30 °C

- sequence entry: "CAAGAGCAAUAUUACGGUAU"
  self-splicing fitness (ln): -4.27
- sequence entry: "GAGGAGCAAUAUUACGACGG"
  self-splicing fitness (ln): -3.25
- sequence entry: "CCGAAGCAAUAUUACGUGUG"
  self-splicing fitness (ln): -2.19
- sequence entry: "GGCGAGCAAUAUUACGCUCU"
  self-splicing fitness (ln): -2.72
- sequence entry: "UUCCAGCAAUAUUACGCCCC"
  self-splicing fitness (ln): -2.4
- sequence entry: "UAUGAGCAAUAUUACGCGGG"
  self-splicing fitness (ln): -2.75
- sequence entry: "AGAUAGCAAUAUUACGGAAU"
  self-splicing fitness (ln): -2.07
- sequence entry: "AUAGAGCAAUAUUACGCCCU"
  self-splicing fitness (ln): -0.756
- sequence entry: "UAGAAGCAAUAUUACGAUUU"
  self-splicing fitness (ln): -0.745
- sequence entry: "UCUCAGCAAUAUUACGAGAG"
  self-splicing fitness (ln): -2.76
- sequence entry: "UAGCAGCAAUAUUACGGGAC"
  self-splicing fitness (ln): -4.55
- sequence entry: "CGGCAGCAAUAUUACGCGGU"
  self-splicing fitness (ln): -4.26
- sequence entry: "AGUAAGCAAUAUUACGUCCG"
  self-splicing fitness (ln): -2.03
- sequence entry: "CAAGAGCAAUAUUACGUUGG"
  self-splicing fitness (ln): -2.67
- sequence entry: "AUAGAGCAAUAUUACGAAAU"
  self-splicing fitness (ln): -0.572
- sequence entry: "UACCAGCAAUAUUACGCGGC"
  self-splicing fitness (ln): -3.78
- sequence entry: "UAGAAGCAAUAUUACGAUGA"
  self-splicing fitness (ln): -0.692
- sequence entry: "UCAUAGCAAUAUUACGCGUG"
  self-splicing fitness (ln): -2.85
- sequence entry: "CGGGAGCAAUAUUACGCCUA"
  self-splicing fitness (ln): -2.84
- sequence entry: "AGCGAGCAAUAUUACGAGUA"
  self-splicing fitness (ln): -1.68
- sequence entry: "UGCGAGCAAUAUUACGCGUA"
  self-splicing fitness (ln): -4.01
- sequence entry: "AGCCAGCAAUAUUACGACCU"
  self-splicing fitness (ln): 0.00818
- sequence entry: "GAGUAGCAAUAUUACGGAGG"
  self-splicing fitness (ln): -3.45
- sequence entry: "GGCAAGCAAUAUUACGUGGU"
  self-splicing fitness (ln): -2.43
- sequence entry: "AUGGAGCAAUAUUACGAUAG"
  self-splicing fitness (ln): -3.59
- sequence entry: "UGUCAGCAAUAUUACGGGGC"
  self-splicing fitness (ln): -2.84
- sequence entry: "CUGAAGCAAUAUUACGAGAC"
  self-splicing fitness (ln): -0.346
- sequence entry: "GAAUAGCAAUAUUACGCCCC"
  self-splicing fitness (ln): -0.0149
- sequence entry: "ACGGAGCAAUAUUACGGCCG"
  self-splicing fitness (ln): -1.98
- sequence entry: "GACCAGCAAUAUUACGUCGC"
  self-splicing fitness (ln): -1.89
- sequence entry: "AUAAAGCAAUAUUACGGGGU"
  self-splicing fitness (ln): -2.63
- sequence entry: "GGAAAGCAAUAUUACGUGGC"
  self-splicing fitness (ln): -2.85
- sequence entry: "UAGUAGCAAUAUUACGUGAA"
  self-splicing fitness (ln): -3.8
- sequence entry: "ACACAGCAAUAUUACGUAGU"
  self-splicing fitness (ln): -2.48
- sequence entry: "CCUAAGCAAUAUUACGUACA"
  self-splicing fitness (ln): -3.4
- sequence entry: "AACGAGCAAUAUUACGAUAU"
  self-splicing fitness (ln): -3.13
- sequence entry: "AAGAAGCAAUAUUACGAUCU"
  self-splicing fitness (ln): 0.00748
- sequence entry: "AUGAAGCAAUAUUACGUUAG"
  self-splicing fitness (ln): -1.97
- sequence entry: "ACGUAGCAAUAUUACGGAAG"
  self-splicing fitness (ln): -3.32
- sequence entry: "UUUAAGCAAUAUUACGUAUG"
  self-splicing fitness (ln): -1.44
- sequence entry: "CACUAGCAAUAUUACGCUUG"
  self-splicing fitness (ln): -2.03
- sequence entry: "AAAAAGCAAUAUUACGCUGG"
  self-splicing fitness (ln): -1.73
- sequence entry: "GCACAGCAAUAUUACGGAUA"
  self-splicing fitness (ln): -2.49
- sequence entry: "ACUUAGCAAUAUUACGGAAU"
  self-splicing fitness (ln): -2.99
- sequence entry: "CCCAAGCAAUAUUACGCCCU"
  self-splicing fitness (ln): -3.14
- sequence entry: "AACUAGCAAUAUUACGGUGG"
  self-splicing fitness (ln): -2.14
- sequence entry: "CUCUAGCAAUAUUACGCGUC"
  self-splicing fitness (ln): -3.9
- sequence entry: "CUAGAGCAAUAUUACGUCAU"
  self-splicing fitness (ln): -4.42
- sequence entry: "GCACAGCAAUAUUACGAAGC"
  self-splicing fitness (ln): -2.52
- sequence entry: "GGCCAGCAAUAUUACGGGGC"
  self-splicing fitness (ln): -5.35
- sequence entry: "CAGCAGCAAUAUUACGCGCA"
  self-splicing fitness (ln): -0.471
- sequence entry: "AGGUAGCAAUAUUACGAGGC"
  self-splicing fitness (ln): -3.7
- sequence entry: "GGCGAGCAAUAUUACGCAUA"
  self-splicing fitness (ln): -1.15
- sequence entry: "CGGUAGCAAUAUUACGGGUA"
  self-splicing fitness (ln): -2.65
- sequence entry: "UCAUAGCAAUAUUACGUCAU"
  self-splicing fitness (ln): -2.74
- sequence entry: "GAGUAGCAAUAUUACGACAG"
  self-splicing fitness (ln): -3.07
- sequence entry: "UAGCAGCAAUAUUACGAACG"
  self-splicing fitness (ln): -0.486
- sequence entry: "CCUGAGCAAUAUUACGCCGU"
  self-splicing fitness (ln): -3.18
- sequence entry: "AUAAAGCAAUAUUACGCAUU"
  self-splicing fitness (ln): -1.82
- sequence entry: "ACUUAGCAAUAUUACGAAAU"
  self-splicing fitness (ln): -3.03
- sequence entry: "CUCAAGCAAUAUUACGUUUA"
  self-splicing fitness (ln): -3.93
- sequence entry: "UCUGAGCAAUAUUACGCGGG"
  self-splicing fitness (ln): -3.91
- sequence entry: "GCGGAGCAAUAUUACGAUUU"
  self-splicing fitness (ln): -2.22
- sequence entry: "AAAGAGCAAUAUUACGUCGG"
  self-splicing fitness (ln): -3.89
- sequence entry: "AUUUAGCAAUAUUACGGCCU"
  self-splicing fitness (ln): 0.607
- sequence entry: "GAUUAGCAAUAUUACGUCGA"
  self-splicing fitness (ln): -1.83
- sequence entry: "ACAAAGCAAUAUUACGCGGA"
  self-splicing fitness (ln): -1.7
